# experiment description: MTT relative viability, PhTERT-SEAP (H1299) cells
# run conditions: human
outcome measure: viability at 48 h, 25 µM

[ask] Give a short answer stating reported viability at 48 h, 25 µM for O=C(CCl)Nc1ccc(NC(=O)CCl)c2c1C(=O)c1ccccc1C2=O .
[reply] 96%

---

# experiment description: MTT relative viability, PhTERT-SEAP (H1299) cells
# run conditions: human
outcome measure: viability at 48 h, 2.3 µM
Kindly write the number and append the unit.

Example entries and their recorded answers appear below.
| compound | viability at 48 h, 2.3 µM |
| --- | --- |
| CC(Cl)C(=O)Nc1ccc(NC(=O)C(C)Cl)c2c1C(=O)c1ccccc1C2=O (stereo not drawn) | 111% |
| O=C(CCCl)Nc1ccc(NC(=O)CCCl)c2c1C(=O)c1ccccc1C2=O | 99% |

Could you now consider this next compound?
[ask] Give a short answer stating reported viability at 48 h, 2.3 µM for CCCCCC(=O)Oc1cccc2c1C(=O)c1cccc(OC(=O)CCCCC)c1C2=O .
[reply] 117%

---

# experiment description: MTT relative viability, PhTERT-SEAP (hTERT-BJ1) cells
# run conditions: human, hTERT-BJ1 cells stably transfected with PhTERT-SEAP reporter
outcome measure: viability at 48 h, 3.1 µM (%)
Note: unit % is implicit; provide only the numeric part.

[ask] Give a short answer stating reported viability at 48 h, 3.1 µM for CC(=O)Nc1ccc(NC(C)=O)c2c1C(=O)c1ccccc1C2=O .
[reply] 117

---

# experiment description: MTT relative viability, PhTERT-SEAP (H1299) cells
# run conditions: human
outcome measure: viability at 48 h, 300 µM (%)
Note: unit % is implicit; provide only the numeric part.

[ask] Give a short answer stating reported viability at 48 h, 300 µM for CCSc1cccc2c1C(=O)c1cccc(SCC)c1C2=O [IIa, 1,5-Bis(ethylthio)-anthraquinone] .
[reply] 25

---

# experiment description: MTT relative viability, PhTERT-SEAP (hTERT-BJ1) cells
# run conditions: human, hTERT-BJ1 cells, stable PhTERT-SEAP reporter clone
Recorded viability at 48 h, 21 µM by entry
Note: unit % is implicit; provide only the numeric part.

Example entries and their recorded answers appear below.
| smiles input | viability at 48 h, 21 µM / % |
| --- | --- |
| CCN(CC)CC(=O)Nc1ccc(NC(=O)CN(CC)CC)c2c1C(=O)c1ccccc1C2=O | 86 |
| O=C(Nc1ccc(NC(=O)c2cccs2)c2c1C(=O)c1ccccc1C2=O)c1cccs1 | 99 |

Could you now consider this next molecule?
[ask] Give a short answer stating reported viability at 48 h, 21 µM for O=C1c2ccccc2C(=O)c2c(NC(=O)C3CCCCC3)ccc(NC(=O)C3CCCCC3)c21 .
[reply] 97

---

Recorded activity at 20 µM by entry
# Tested on: transcriptional activity of hTERT
# experiment description: SEAP reporter assay of hTERT expression, PhTERT-SEAP (hTERT-BJ1)
# Type: cell-based, human
# run conditions: Homo sapiens; 20 μM, PhTERT-SEAP (hTERT-BJ1); read-out: Relative SEAP activity (%)
Note: unit % is implicit; provide only the numeric part.

| compound | observed result |
| --- | --- |
| CCN(CC)CCC(=O)Nc1ccc(NC(=O)CCN(CC)CC)c2c1C(=O)c1ccccc1C2=O [VI34] | -2 |
| O=C(CCC1CCCC1)Nc1ccc(NC(=O)CCC2CCCC2)c2c1C(=O)c1ccccc1C2=O [VI19] | 87 |
| O=C(Cc1cccs1)Nc1ccc(NC(=O)Cc2cccs2)c2c1C(=O)c1ccccc1C2=O [VI25] | 40 |

[ask] Give a short answer stating reported activity at 20 µM for CCN(CC)C(C)C(=O)Nc1ccc(NC(=O)C(C)N(CC)CC)c2c1C(=O)c1ccccc1C2=O (stereo not shown) [VI35] .
[reply] 49
